Target or test system: T1, VLP2 (virus-like particles of AAV2) (AAV2, UniProt P03135 1-735; P03135 1-598; P03135 1-533)
T1 construct: Empty AAV2 capsid; background says about 60 protein molecules, VP1:VP2:VP3 = 1:1:10; Immobilised on the ELISA plate
T1 sequence (P03135 whole entry, chain 1 of 3): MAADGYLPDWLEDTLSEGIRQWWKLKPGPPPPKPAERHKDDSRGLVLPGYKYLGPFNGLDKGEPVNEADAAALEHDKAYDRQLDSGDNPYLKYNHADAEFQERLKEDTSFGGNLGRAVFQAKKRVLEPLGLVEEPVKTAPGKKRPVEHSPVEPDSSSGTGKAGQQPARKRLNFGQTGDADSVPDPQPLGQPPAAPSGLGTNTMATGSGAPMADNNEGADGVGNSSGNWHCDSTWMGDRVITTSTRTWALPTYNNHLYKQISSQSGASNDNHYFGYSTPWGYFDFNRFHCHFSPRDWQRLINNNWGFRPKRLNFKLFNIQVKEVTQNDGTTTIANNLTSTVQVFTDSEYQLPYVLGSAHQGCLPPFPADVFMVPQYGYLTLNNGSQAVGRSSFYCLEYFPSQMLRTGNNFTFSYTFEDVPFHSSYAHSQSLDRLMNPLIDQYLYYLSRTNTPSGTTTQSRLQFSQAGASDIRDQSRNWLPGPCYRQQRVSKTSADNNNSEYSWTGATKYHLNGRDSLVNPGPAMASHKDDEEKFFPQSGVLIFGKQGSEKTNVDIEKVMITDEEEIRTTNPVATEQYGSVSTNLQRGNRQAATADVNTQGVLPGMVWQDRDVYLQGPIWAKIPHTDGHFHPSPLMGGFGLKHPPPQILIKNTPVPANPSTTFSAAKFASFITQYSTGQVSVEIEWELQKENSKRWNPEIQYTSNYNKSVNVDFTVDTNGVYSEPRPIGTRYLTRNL
T1 sequence (P03135 139-735, tags left off, chain 2 of 3): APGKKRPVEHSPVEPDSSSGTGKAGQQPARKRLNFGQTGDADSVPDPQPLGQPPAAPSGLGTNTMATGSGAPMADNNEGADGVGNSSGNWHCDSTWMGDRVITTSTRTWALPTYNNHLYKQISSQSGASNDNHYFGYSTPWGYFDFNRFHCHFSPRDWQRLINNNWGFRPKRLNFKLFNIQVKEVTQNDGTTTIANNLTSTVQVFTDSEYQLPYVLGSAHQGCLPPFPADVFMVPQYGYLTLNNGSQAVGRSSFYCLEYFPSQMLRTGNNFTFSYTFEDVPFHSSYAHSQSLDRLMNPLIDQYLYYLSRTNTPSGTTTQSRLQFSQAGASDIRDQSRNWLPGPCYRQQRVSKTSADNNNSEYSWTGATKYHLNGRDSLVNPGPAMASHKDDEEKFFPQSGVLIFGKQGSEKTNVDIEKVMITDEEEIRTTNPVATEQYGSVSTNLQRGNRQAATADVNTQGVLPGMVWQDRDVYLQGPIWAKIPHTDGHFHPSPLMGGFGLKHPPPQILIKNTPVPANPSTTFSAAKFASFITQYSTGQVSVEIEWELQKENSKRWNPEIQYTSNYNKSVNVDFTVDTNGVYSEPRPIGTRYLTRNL
T1 sequence (P03135 203-735, chain 3 of 3): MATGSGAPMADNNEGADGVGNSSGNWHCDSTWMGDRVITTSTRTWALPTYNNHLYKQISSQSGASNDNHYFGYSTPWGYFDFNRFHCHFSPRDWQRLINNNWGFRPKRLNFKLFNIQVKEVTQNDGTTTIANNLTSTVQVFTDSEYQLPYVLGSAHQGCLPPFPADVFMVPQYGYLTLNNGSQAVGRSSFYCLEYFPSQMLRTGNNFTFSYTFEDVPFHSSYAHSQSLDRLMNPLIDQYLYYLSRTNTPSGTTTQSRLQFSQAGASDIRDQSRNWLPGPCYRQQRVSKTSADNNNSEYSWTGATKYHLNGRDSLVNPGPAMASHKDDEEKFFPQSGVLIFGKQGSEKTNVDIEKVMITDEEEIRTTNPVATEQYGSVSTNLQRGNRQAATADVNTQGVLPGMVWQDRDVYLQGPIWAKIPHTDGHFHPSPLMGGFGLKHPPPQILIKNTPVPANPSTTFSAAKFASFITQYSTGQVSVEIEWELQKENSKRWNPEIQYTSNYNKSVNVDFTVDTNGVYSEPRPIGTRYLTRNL
Assay remarks: ELISA on VLP2; binding after 43°C 15 min / untreated
Endpoint name: Residual activity [%] (%)
Quick reminder: number only, in %, skip the unit.

Look up Residual activity [%]: AAV-binding protein No. 11 (Tyr355Asn) (receptor) MGSAGESVQITLPKNEVQLNAYVLQEPPKGETYTYDWQLITHPRDNSGEMEGKHSQILKLSKLTPGLYEFKVIVEGQNAHGEGYVNVTVKPEPRKNRPPIAIVSPQFQEISLPTTSTVIDGSQSTDDDKIVQYHWEELKGPLREEKISEDTAILKLSKLVPGNYTFSLTVVDSDGATNSTTANLTVNKAVDHHHHHH
80.6

Look up Residual activity [%]: AAV-binding protein No. 34 (Trp346Arg, Glu458Gly) (receptor) MGSAGESVQITLPKNEVQLNAYVLQEPPKGETYTYDRQLITHPRDYSGEMEGKHSQILKLSKLTPGLYEFKVIVEGQNAHGEGYVNVTVKPEPRKNRPPIAIVSPQFQEISLPTTSTVIDGSQSTDDDKIVQYHWEELKGPLREEKISGDTAILKLSKLVPGNYTFSLTVVDSDGATNSTTANLTVNKAVDHHHHHH
78.1

Look up Residual activity [%]: AAV-binding protein No. 52 (Leu348Pro, Leu376Pro, Val396Ala) (receptor) MGSAGESVQITLPKNEVQLNAYVLQEPPKGETYTYDWQPITHPRDYSGEMEGKHSQILKLSKLTPGPYEFKVIVEGQNAHGEGYVNATVKPEPRKNRPPIAIVSPQFQEISLPTTSTVIDGSQSTDDDKIVQYHWEELKGPLREEKISEDTAILKLSKLVPGNYTFSLTVVDSDGATNSTTANLTVNKAVDHHHHHH
80.9

Look up Residual activity [%]: AAV-binding protein No. 50 (Val332Gln, Tyr342Cys, Val412Ala) (receptor) MGSAGESVQITLPKNEVQLNAYQLQEPPKGETCTYDWQLITHPRDYSGEMEGKHSQILKLSKLTPGLYEFKVIVEGQNAHGEGYVNVTVKPEPRKNRPPIAIASPQFQEISLPTTSTVIDGSQSTDDDKIVQYHWEELKGPLREEKISEDTAILKLSKLVPGNYTFSLTVVDSDGATNSTTANLTVNKAVDHHHHHH
80.3
